Source listed as patent US11952349B2.

target: AR, cytosol from LnCaP cells (Homo sapiens, UniProt P10275, T878A); construct: AR in LNCaP cytosol was used; endogenous in cells; host or cells: LNCaP cells (cytosol); assay: AR binding assay, 3H-R1881 (Biological Example 2)
pIC50: −log10 of the molar value.
READOUT TYPE: pIC50

>>> result("C[C@@]12CCC(=O)C[C@H]1CC[C@H]1[C@H]2CC[C@]2(C)[C@@H]1CC[C@H]2OCCCCCCNC(=O)c1cc(Cc2n[nH]c(=O)c3ccccc23)ccc1F (stereo in doubt)")
"6.00 to 7.00"
>>> result("C[C@]12C=CC(=O)C[C@@H]1CC[C@@H]1[C@@H]2CC[C@]2(C)[C@@H](OCCCCCC(=O)N3CCN(C(=O)c4cc(Cc5n[nH]c(=O)c6ccccc56)ccc4F)CC3)CC[C@@H]12")
"7.00 to 8.00"
>>> result("C[C@]12Cc3cn[nH]c3C[C@@H]1CC[C@@H]1[C@@H]2CC[C@]2(C)[C@@H](OCCCCCC(=O)N3CCN(C(=O)c4cc(Cc5n[nH]c(=O)c6ccccc56)ccc4F)CC3)CC[C@@H]12")
"6.00 to 7.00"
>>> result("C[C@]12C[C@H](CCCCCC(=O)N3CCN(C(=O)c4cc(Cc5n[nH]c(=O)c6ccccc56)ccc4F)CC3)C3=C4CCC(=O)C=C4CC[C@H]3[C@@H]1CCC2O (stereo partly shown)")
"7.00 to 8.00"

====

The reader will find reported IC50 values listed item by item below.
Target: GR, cytosol from IM-9 cells (Homo sapiens, UniProt P04150)
Construct: endogenous in cells
Sequence (P04150 whole entry): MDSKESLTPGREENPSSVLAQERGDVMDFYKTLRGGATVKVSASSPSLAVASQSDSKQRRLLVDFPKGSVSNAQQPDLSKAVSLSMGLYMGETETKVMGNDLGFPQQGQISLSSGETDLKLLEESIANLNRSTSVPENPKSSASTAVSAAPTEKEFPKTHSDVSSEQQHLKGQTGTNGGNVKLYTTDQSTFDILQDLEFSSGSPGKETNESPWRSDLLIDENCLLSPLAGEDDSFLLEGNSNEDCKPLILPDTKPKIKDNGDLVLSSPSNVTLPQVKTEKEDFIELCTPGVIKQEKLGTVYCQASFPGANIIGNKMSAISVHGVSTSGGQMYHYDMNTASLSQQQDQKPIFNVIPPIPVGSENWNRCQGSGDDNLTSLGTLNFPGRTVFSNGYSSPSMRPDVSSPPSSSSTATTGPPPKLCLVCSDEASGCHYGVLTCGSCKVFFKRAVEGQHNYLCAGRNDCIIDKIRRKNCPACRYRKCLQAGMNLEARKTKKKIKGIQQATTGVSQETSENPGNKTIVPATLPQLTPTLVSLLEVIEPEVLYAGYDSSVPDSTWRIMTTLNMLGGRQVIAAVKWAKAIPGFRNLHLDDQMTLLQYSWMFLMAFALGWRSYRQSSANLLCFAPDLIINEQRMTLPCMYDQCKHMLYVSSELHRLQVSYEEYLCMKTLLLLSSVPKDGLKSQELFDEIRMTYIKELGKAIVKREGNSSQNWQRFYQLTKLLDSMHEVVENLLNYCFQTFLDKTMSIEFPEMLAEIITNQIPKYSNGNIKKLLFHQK
Experiment: GR binding assay, 3H-Dexamethasone
Settings: Table 8; 3H-Dexamethasone 1.5 nM
Procedure: GR binding assay: To assess GR binding, test compound (top dose 1 μM, 4 fold serial dilution, 8 point dose response) and control (dexamethasone) were transferred to the assay plate. Cytosol from IM-9 cells was added to the plate, followed by addition of radiolabeled ^3H-Dexamethasone at a final concentration of 1.5 nM. The plate was sealed, and the reaction was incubated at 300 rpm at 4° C. for 24 hrs. […]
READOUT TYPE: IC50

>>> result("CC(=O)O[C@]1(C(C)=O)CC[C@H]2[C@@H]3CCC4=CC(=O)CCC4=C3[C@@H](c3ccc(N(C)CCCCCC(=O)N4CCN(C(=O)c5cc(Cc6n[nH]c(=O)c7ccccc67)ccc5F)CC4)cc3)C[C@@]21C")
"< 10 nM"
>>> result("CC(=O)O[C@]1(C(C)=O)CC[C@H]2[C@@H]3CCC4=CC(=O)CCC4=C3[C@@H](c3ccc(N(C)CCCCCC(=O)NCCOCCOCC(=O)N4CCN(C(=O)c5cc(Cc6n[nH]c(=O)c7ccccc67)ccc5F)CC4)cc3)C[C@@]21C")
"< 10 nM"
>>> result("C[C@]12CC[C@H]3[C@@H](CCC4=CC(=O)CC[C@@]43C)[C@@H]1CC[C@@H]2C(=O)COCCCCCC(=O)N1CCN(C(=O)c2cc(Cc3n[nH]c(=O)c4ccccc34)ccc2F)CC1")
"100 to 1000 nM"

====

The reader will find reported IC50 values listed item by item below.
biological target: Human recombinant PARP2 (Homo sapiens, UniProt Q9UGN5); experiment: RBC HotSpot PARP2 assay (radioisotope-based filter binding); format: biochemical; conditions: Table 9; read-out: PARP2
Sequence (Q9UGN5 whole entry): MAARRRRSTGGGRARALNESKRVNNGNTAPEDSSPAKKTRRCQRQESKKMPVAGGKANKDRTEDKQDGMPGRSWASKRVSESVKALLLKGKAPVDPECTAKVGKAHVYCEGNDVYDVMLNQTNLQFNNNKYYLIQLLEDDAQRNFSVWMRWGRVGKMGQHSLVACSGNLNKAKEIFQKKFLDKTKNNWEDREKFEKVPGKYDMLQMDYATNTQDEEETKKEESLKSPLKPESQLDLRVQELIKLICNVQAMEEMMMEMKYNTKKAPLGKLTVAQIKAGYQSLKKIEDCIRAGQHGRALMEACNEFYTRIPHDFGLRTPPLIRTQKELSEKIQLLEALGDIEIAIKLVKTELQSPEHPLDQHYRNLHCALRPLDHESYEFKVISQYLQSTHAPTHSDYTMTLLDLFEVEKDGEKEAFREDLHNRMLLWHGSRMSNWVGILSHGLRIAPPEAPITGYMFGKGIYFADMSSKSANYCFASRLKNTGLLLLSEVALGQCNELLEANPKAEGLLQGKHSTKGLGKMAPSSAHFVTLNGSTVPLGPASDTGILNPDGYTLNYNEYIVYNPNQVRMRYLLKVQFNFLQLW
READOUT TYPE: IC50

>>> result("C[C@]12CC[C@H]3[C@@H](CCC4=CC(=O)CC[C@@]43C)[C@@H]1CC[C@@H]2C(=O)COCCCCCC(=O)N1CCN(C(=O)c2cc(Cc3n[nH]c(=O)c4ccccc34)ccc2F)CC1")
"< 1 nM"
>>> result("C[C@@H]1C[C@@]2(C)[C@@H](CC[C@@H]3[C@@H]2CC[C@]2(C)[C@@H](OCCCCCC(=O)N4CCN(C(=O)c5cc(Cc6n[nH]c(=O)c7ccccc67)ccc5F)CC4)CC[C@@H]32)CC1=O")
"1 to 10 nM"
>>> result("CC#C[C@]1(O)CC[C@H]2[C@@H]3CCC4=CC(=O)CCC4=C3[C@@H](c3ccc(N(C)CCCCCC(=O)N4CCN(C(=O)c5cc(Cc6n[nH]c(=O)c7ccccc67)ccc5F)CC4)cc3)C[C@@]21C")
"< 1 nM"
>>> result("CC#C[C@]1(O)CC[C@H]2[C@@H]3CCC4=CC(=O)CCC4=C3[C@@H](c3ccc(N(C)CCCCCC(=O)NCCOCCOCC(=O)N4CCN(C(=O)c5cc(Cc6n[nH]c(=O)c7ccccc67)ccc5F)CC4)cc3)C[C@@]21C")
"< 1 nM"
>>> result("CC(=O)O[C@]1(C(C)=O)CC[C@H]2[C@@H]3CCC4=CC(=O)CCC4=C3[C@@H](c3ccc(N(C)CCCCCC(=O)N4CCN(C(=O)c5cc(Cc6n[nH]c(=O)c7ccccc67)ccc5F)CC4)cc3)C[C@@]21C")
"< 1 nM"
>>> result("C[C@]12C[C@H](CCCCCC(=O)N3CCN(C(=O)c4cc(Cc5n[nH]c(=O)c6ccccc56)ccc4F)CC3)C3=C4CCC(=O)C=C4CC[C@H]3[C@@H]1CCC2O (stereo partly shown)")
"< 1 nM"
>>> result("C[C@@]12CCC(=O)C[C@H]1CC[C@H]1[C@H]2CC[C@]2(C)[C@@H]1CC[C@H]2OCCCCCCNC(=O)c1cc(Cc2n[nH]c(=O)c3ccccc23)ccc1F (stereo in doubt)")
"1 to 10 nM"
>>> result("C[C@]12Cc3cn[nH]c3C[C@@H]1CC[C@@H]1[C@@H]2CC[C@]2(C)[C@@H](OCCCCCC(=O)N3CCN(C(=O)c4cc(Cc5n[nH]c(=O)c6ccccc56)ccc4F)CC3)CC[C@@H]12")
"1 to 10 nM"
>>> result("CC(=O)O[C@]1(C(C)=O)CC[C@H]2[C@@H]3CCC4=CC(=O)CCC4=C3[C@@H](c3ccc(N(C)CCCCCC(=O)NCCOCCOCC(=O)N4CCN(C(=O)c5cc(Cc6n[nH]c(=O)c7ccccc67)ccc5F)CC4)cc3)C[C@@]21C")
"< 1 nM"
>>> result("C[C@]12CC[C@H]3[C@@H](CCC4=CC(=O)CC[C@@]43C)[C@@H]1CC[C@@H]2C(=O)COCCCCCC(=O)NCCOCCOCC(=O)N1CCN(C(=O)c2cc(Cc3n[nH]c(=O)c4ccccc34)ccc2F)CC1")
"< 1 nM"

====

molecular target: Human recombinant PARP1 (Homo sapiens); assay: RBC HotSpot PARP1 assay (radioisotope-based filter binding); type: biochemical; conditions: Table 5, in vitro results; read-out: PARP1 IC50
Sequence (P09874 whole entry): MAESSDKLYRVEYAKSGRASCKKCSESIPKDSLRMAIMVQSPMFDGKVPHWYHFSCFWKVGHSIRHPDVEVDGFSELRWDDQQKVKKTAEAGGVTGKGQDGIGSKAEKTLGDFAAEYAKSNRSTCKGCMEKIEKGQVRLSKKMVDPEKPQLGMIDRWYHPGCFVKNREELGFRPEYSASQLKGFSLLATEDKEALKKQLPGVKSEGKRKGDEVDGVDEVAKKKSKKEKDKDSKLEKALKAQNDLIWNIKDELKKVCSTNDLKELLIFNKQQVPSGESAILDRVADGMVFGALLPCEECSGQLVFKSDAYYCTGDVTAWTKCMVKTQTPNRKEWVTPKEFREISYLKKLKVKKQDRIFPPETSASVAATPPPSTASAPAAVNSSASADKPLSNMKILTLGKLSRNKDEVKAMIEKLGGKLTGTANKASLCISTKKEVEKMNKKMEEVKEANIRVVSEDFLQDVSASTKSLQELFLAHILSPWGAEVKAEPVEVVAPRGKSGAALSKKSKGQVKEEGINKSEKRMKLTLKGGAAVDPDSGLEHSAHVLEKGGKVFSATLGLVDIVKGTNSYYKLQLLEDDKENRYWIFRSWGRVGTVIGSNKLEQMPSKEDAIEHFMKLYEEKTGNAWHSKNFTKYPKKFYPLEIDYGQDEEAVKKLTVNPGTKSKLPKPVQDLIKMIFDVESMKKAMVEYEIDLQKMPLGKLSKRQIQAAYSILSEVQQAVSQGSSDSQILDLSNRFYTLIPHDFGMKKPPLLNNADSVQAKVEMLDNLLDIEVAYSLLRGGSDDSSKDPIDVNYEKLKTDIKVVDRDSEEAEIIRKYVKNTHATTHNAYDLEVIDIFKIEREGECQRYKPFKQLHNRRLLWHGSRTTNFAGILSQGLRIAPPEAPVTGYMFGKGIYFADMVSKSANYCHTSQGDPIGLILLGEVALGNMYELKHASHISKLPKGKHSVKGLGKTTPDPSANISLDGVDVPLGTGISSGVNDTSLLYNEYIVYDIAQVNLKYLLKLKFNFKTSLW
READOUT TYPE: IC50 (µM)

>>> numeric_readout("Cn1ncnc1C1c2n[nH]c(=O)c3cc(F)cc(c23)N[C@@H]1c1ccc(NC(=O)CCCCCO[C@@H]2CC[C@H]3[C@@H]4CC[C@H]5CCCC[C@]5(C)[C@H]4CC[C@]23C)cc1 (stereo partly shown)")
0.252

====

Molecular target: Human recombinant PARP2 (Homo sapiens)
Assay: RBC HotSpot PARP2 assay (radioisotope-based filter binding)
Format: biochemical
Conditions: Table 5, in vitro results; read-out: PARP2 IC50
Method: The following methods are for evaluating the in vitro biology properties of the test articles. • a. […] The assay principle is radioisotope-based filter binding assay where incorporation of radioisotope-labeled NAD^+ into the substrate captured on filter is detected after washout free NAD^+. Data were analyzed using Excel and GraphPad Prism software for IC50 curve fits. […] IC50 s were determined using 8 concentrations/compound. […]
pIC50: −log10 of the molar value.
READOUT TYPE: pIC50

>>> numeric_readout("Cn1ncnc1C1c2n[nH]c(=O)c3cc(F)cc(c23)N[C@@H]1c1ccc(NC(=O)CCCCCO[C@@H]2CC[C@H]3[C@@H]4CC[C@H]5CCCC[C@]5(C)[C@H]4CC[C@]23C)cc1 (stereo partly shown)")
7.85

====

target: GR, cytosol from IM-9 cells (Homo sapiens); construct: endogenous in cells; test: GR binding assay, 3H-Dexamethasone; settings: Table 8; 3H-Dexamethasone 1.5 nM
The reader will find reported IC50 values listed item by item below.
READOUT TYPE: IC50

>>> result("CC#C[C@]1(O)CC[C@H]2[C@@H]3CCC4=CC(=O)CCC4=C3[C@@H](c3ccc(N(C)CCCCCC(=O)NCCOCCOCC(=O)N4CCN(C(=O)c5cc(Cc6n[nH]c(=O)c7ccccc67)ccc5F)CC4)cc3)C[C@@]21C")
"< 0.01 µM"
>>> result("CC#C[C@]1(O)CC[C@H]2[C@@H]3CCC4=CC(=O)CCC4=C3[C@@H](c3ccc(N(C)CCCCCC(=O)N4CCN(C(=O)c5cc(Cc6n[nH]c(=O)c7ccccc67)ccc5F)CC4)cc3)C[C@@]21C")
"< 0.01 µM"

====

Biological target: AR in LNCaP cytosol (Homo sapiens, UniProt P10275, T878A)
Construct: AR in LNCaP cytosol was used; endogenous in cells
Sequence (P10275 1-920 T878A): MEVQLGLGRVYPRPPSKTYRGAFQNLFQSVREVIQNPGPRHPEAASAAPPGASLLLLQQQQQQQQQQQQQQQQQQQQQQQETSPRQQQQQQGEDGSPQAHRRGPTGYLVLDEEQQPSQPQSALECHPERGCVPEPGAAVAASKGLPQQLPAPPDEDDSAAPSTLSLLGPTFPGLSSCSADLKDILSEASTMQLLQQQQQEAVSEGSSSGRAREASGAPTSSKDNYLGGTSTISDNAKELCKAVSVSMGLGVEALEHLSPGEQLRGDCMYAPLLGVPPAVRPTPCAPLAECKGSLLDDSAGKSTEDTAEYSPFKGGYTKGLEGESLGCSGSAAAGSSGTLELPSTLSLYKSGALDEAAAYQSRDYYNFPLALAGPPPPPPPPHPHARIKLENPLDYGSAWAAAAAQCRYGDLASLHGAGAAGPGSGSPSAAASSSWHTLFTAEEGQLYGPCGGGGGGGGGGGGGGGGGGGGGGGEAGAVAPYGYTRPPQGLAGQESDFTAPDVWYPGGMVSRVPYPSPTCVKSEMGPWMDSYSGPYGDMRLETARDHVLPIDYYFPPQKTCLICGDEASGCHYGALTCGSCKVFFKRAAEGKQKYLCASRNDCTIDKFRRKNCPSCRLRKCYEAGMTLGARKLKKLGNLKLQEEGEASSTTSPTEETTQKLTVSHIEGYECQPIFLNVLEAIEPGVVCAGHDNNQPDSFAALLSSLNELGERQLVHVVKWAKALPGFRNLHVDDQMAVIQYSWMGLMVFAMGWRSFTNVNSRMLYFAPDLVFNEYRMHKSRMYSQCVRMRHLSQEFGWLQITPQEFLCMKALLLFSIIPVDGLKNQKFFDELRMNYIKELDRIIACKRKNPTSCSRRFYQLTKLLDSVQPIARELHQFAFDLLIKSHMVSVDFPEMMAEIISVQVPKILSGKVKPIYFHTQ
Assay: AR binding assay, 3H-methyltrienolone (Biological Example 1)
Settings: Table 6, in vitro NHR binding; Ki=IC50/(1+[L]/Kd), [L] 1 nM, Kd 0.332 nM
pKi: −log10 of the molar value.
READOUT TYPE: pKi

>>> result("Cn1ncnc1C1c2n[nH]c(=O)c3cc(F)cc(c23)N[C@@H]1c1ccc(NC(=O)CCCCCO[C@@H]2CC[C@H]3[C@@H]4CC[C@H]5CCCC[C@]5(C)[C@H]4CC[C@]23C)cc1 (stereo partly shown)")
"< 5.13"
